Data provenance: patent US11225475B2

# systemTested: HDAC1 (Homo sapiens (Human))
# Sequence (Q13547 whole entry): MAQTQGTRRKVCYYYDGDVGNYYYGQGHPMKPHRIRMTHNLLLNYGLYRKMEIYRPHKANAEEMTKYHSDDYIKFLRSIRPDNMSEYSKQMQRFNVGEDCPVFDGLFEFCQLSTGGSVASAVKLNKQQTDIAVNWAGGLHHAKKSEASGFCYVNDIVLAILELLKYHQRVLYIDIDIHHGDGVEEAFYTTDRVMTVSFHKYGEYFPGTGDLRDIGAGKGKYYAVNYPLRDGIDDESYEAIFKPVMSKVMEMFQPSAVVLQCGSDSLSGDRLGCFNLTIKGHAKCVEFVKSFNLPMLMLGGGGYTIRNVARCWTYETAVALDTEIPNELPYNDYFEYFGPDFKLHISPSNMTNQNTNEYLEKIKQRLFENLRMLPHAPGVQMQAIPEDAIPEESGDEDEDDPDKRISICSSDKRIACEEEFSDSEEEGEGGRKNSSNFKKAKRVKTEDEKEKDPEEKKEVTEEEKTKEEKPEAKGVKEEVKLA
# methodSummary: HDAC1 enzymatic assay (deacetylation of peptide substrate, Caliper LabChip)
# Type: biochemical
# statedConditions: reaction time 17 hours, 25° C.
pIC50: −log10 of the molar value.

compound | pIC50
COCCn1cc2c(n1)CN(C(=O)Nc1nc(-c3ccccc3F)ccc1N)C2 [Compound 8] | 6.30 to 7.00
Cc1ncc2c(n1)CN(C(=O)Nc1nc(-c3ccc(F)cc3F)ccc1N)C2 [Compound 5] | 5.30 to 6.30
CCn1cc2c(n1)CN(C(=O)Nc1nc(-c3ccc(F)cc3F)ccc1N)C2 [Compound 10] | 6.30 to 7.00
COCCn1cc2c(n1)CN(C(=O)Nc1nc(-c3ccc(Cl)s3)ccc1N)C2 [Compound 6] | 5.30 to 6.30
Cc1cc2c(cn1)CN(C(=O)Nc1nc(-c3ccc(F)cc3F)ccc1N)C2 [Compound 1] | 6.30 to 7.00
Cc1nc2c(s1)CN(C(=O)Nc1nc(-c3ccc(F)cc3F)ccc1N)C2 [Compound 3] | 6.30 to 7.00
